Target or system: Kappa-type opioid receptor (Cavia porcellus, UniProt P41144)
Sequence (P41144 whole entry): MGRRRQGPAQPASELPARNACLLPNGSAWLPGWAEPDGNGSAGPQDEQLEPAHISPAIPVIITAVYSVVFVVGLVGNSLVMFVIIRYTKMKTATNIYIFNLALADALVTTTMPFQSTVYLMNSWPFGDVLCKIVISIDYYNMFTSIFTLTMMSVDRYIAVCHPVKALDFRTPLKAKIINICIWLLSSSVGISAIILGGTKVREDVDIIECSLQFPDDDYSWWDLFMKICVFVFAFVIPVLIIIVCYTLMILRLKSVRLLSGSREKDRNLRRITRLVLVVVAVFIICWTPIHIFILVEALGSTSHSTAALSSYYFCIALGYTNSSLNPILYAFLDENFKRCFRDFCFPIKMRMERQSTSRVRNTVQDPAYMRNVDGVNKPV
Experimental details: Affinity at K opioid receptor on membranes prepared from guinea pig cerebellum by [3H]- 69593 displacement.
Assay type: tissue-based
Measurement context: read-out: Ki
Provide the reported Ki of each item.
Respond numerically; units are nM and should not be typed.

Return reported Ki; argument: CN(C(=O)C(c1ccccc1)C1CCCCC1)[C@H](CN1CC[C@H](O)C1)c1ccccc1 (stereo in doubt; form 2)
10

Subsequent entry: CN(C(=O)C(c1ccccc1)c1ccccc1)[C@H](CN1CC[C@H](O)C1)c1cccc(N)c1
6

Subsequent entry: CN(C(=O)C(c1cccs1)c1cccs1)[C@H](CN1CC[C@H](O)C1)c1ccccc1
4

Subsequent entry: CN(C(=O)C1c2ccccc2Oc2ccccc21)[C@H](CN1CC[C@H](O)C1)c1ccccc1
4

Subsequent entry: CN(C(=O)C1c2ccccc2-c2ccccc21)[C@H](CN1CC[C@H](O)C1)c1ccccc1
6

Subsequent entry: CN(C(=O)C(c1ccc(Cl)cc1)c1ccc(Cl)cc1)[C@H](CN1CC[C@H](O)C1)c1ccccc1
5

Subsequent entry: CN(C(=O)C(c1ccc(F)cc1)c1ccc(F)cc1)[C@H](CN1CC[C@H](O)C1)c1ccccc1
7

Subsequent entry: COc1ccc([C@@H](CN2CC[C@H](O)C2)N(C)C(=O)C(c2ccccc2)c2ccccc2)cc1
7
